# subjectOfTest: T1, SNTA1, Q13424
# T1 sequence (Q13424 82-180, limits assumed, looked up): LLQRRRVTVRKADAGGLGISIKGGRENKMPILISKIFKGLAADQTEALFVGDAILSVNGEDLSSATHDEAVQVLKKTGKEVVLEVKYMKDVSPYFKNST
# testName: holdup assay
# Set-up: key: below the threshold = too weak to quantify, mostly under pKd 3.1 to 4
# experimentalContext: plain residues with an end cap or a label only (N-terminal biotin on a linker: ado-ado)
observable: pKd

Consider the following illustrative entries.
{"binder": "TKEIPNCTSV [SORCS3, Q9UPU3]", "result": 4.16}
{"binder": "HDDYFYHDEL [RCN2, Q14257]", "result": 3.6}
{"binder": "VISSDDLTEL [CAPN6, Q9Y6Q1]", "result": "below the threshold"}
{"binder": "QLKSGRDSTV [TMEM178A, Q8NBL3]", "result": 3.88}
{"binder": "QQGLLPHSSC [TYRO3, Q06418]", "result": "below the threshold"}
{"binder": "NTALVESEDL [PALLS, Q8WX93;Q8WX93-1]", "result": "below the threshold"}
{"binder": "SAGADSETHC [SLCO1B1, Q9Y6L6]", "result": "below the threshold"}
{"binder": "LLQEEWETVM [PTH1R, Q03431]", "result": 4.09}

Entry PAALPESTHM [SLC9A3, P48764] , pKd reported as below the threshold

Lab note: DFKHTKSFII [JAM2, P57087] gave pKd of below the threshold

Looking up ELKAEDEVQI [DCHS2, Q6V1P9] , I found its pKd recorded as below the threshold
